- subject-of-test: MAO-B (Homo sapiens (Human), UniProt P27338)
- Sequence (P27338 whole entry): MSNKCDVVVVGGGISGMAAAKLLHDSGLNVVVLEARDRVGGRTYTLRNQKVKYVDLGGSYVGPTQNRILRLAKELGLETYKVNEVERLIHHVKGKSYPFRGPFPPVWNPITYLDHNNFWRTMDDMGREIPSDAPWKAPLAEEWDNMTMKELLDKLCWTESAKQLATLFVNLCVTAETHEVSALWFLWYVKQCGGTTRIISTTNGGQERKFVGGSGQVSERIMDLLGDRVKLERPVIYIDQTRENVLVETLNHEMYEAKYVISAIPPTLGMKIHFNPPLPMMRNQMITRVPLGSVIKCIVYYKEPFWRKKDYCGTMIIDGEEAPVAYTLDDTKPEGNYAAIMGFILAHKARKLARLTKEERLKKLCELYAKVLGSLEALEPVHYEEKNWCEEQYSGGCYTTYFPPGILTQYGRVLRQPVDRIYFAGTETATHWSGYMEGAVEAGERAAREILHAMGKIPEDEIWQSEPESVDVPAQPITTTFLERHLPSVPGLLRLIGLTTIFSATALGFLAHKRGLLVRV
- assay-explanation: biochemical
pKi: −log10 of the molar value. Where a name gives a salt, the structure may show the parent alone.
observable: pKi

stdin: What value of measured pKi is listed for N[C@H]1C[C@@H]1c1ccc(-c2cc(Cl)cc(Cl)c2)nc1 (relative stereo) [Example 6, hydrochloride] ?
stdout: 6.00 to 7.00

stdin: Would you kindly repeat that for N[C@H]1C[C@@H]1c1ccc(-c2ccc(Cl)cc2)nc1 (relative stereo) [Example 7, hydrochloride] ?
stdout: 6.00 to 7.00

stdin: And what about the molecule CS(=O)(=O)Nc1cc(Cl)cc(-c2ccc([C@H]3C[C@@H]3N)cc2)c1 (relative stereo) [Example 94, hydrochloride] ?
stdout: 6.00 to 7.00

---

- subject-of-test: MAO-A (Homo sapiens (Human))
- Sequence (P21397 whole entry): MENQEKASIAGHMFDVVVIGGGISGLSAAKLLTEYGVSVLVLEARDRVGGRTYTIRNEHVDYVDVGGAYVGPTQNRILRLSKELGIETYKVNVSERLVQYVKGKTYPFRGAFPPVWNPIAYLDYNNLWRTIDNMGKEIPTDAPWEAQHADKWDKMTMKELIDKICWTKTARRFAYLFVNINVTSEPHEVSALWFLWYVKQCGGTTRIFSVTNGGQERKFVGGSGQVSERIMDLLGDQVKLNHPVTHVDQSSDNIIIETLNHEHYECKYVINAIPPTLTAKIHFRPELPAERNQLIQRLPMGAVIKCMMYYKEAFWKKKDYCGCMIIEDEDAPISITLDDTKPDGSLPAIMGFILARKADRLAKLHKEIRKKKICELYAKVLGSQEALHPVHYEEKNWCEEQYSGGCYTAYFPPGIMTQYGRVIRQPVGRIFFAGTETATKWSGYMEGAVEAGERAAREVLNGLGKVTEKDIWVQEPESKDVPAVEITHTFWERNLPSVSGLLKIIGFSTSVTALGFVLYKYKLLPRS
- assay-explanation: biochemical
Where a name gives a salt, the structure may show the parent alone.
observable: Ki

stdin: For the molecule shown here, CS(=O)(=O)Nc1cc(Cl)cc(-c2ccc([C@H]3C[C@@H]3N)cc2)c1 (relative stereo) [Example 94, hydrochloride] , give the reported Ki.
stdout: 0.1 to 1 µM

stdin: And then COc1cc(-c2cccc(O)c2)ccc1[C@H]1C[C@@H]1N (relative stereo) [Example 106, hydrochloride] , what is it?
stdout: 0.1 to 1 µM

stdin: Lookup CS(=O)(=O)Nc1cc(Cl)cc(-c2ccc([C@H]3C[C@@H]3N)cn2)c1 (relative stereo) [Example 95, hydrochloride]
stdout: 0.1 to 1 µM

---

I'd be grateful if you could share measured Ki for these entries.
- subject-of-test: MAO-B (Homo sapiens (Human), UniProt P27338)
- study-conditions: read-out: MAO-B (Ki)
Where a name gives a salt, the structure may show the parent alone.

stdin: Given the molecule COc1cc(F)cc(-c2ccc([C@H]3C[C@@H]3N)cn2)c1 (relative stereo) [Example 39, hydrochloride] , what is its reported Ki?
stdout: 1 to 40 µM

stdin: // query: N[C@H]1C[C@@H]1c1ccc(-c2ccc(Cl)s2)nc1 (relative stereo) [Example 31, hydrochloride]
stdout: 1 to 40 µM

stdin: Also COc1ccc(F)c(-c2ccc([C@H]3C[C@@H]3N)cn2)c1 (relative stereo) [Example 40, hydrochloride] ?
stdout: 1 to 40 µM

stdin: Queued: N[C@H]1C[C@@H]1c1cnc(-c2cccc(O)c2)s1 (relative stereo) [Example 116, hydrochloride]
stdout: 1 to 40 µM

stdin: How about this molecule: N[C@H]1C[C@@H]1c1ccc(-c2cccc(C(F)(F)F)c2)nc1-c1ccc(Cl)cc1 (relative stereo) [Example 77, hydrochloride]
stdout: 1 to 40 µM

stdin: Query N[C@H]1C[C@@H]1c1ccc(-c2ccc(F)c(O)c2)nc1 (relative stereo) [Example 23, hydrochloride] next
stdout: 1 to 40 µM

---

I'd be grateful if you could share measured Ki for these entries.
- subject-of-test: MAO-A (Homo sapiens (Human))
- study-conditions: read-out: MAO-A (Ki)
Structures can show the parent of a compound that is named as a salt.

stdin: GET /values?readout=Ki&item= N[C@H]1C[C@@H]1c1ccc(-c2cc(O)cc(F)c2)nc1 (relative stereo) [Example 24, hydrochloride]
stdout: 1 to 40 µM

stdin: Likewise for COc1cc(-c2ccc([C@H]3C[C@@H]3N)cn2)ccc1F (relative stereo) [Example 38, hydrochloride] ?
stdout: 1 to 40 µM

stdin: Also check CS(=O)(=O)Nc1cc(-c2ccc([C@H]3C[C@@H]3N)cn2)ccc1F (relative stereo) [Example 97, hydrochloride]
stdout: 1 to 40 µM

stdin: Here is the next compound: N[C@H]1C[C@@H]1c1ccc(-c2csc3ccccc23)nc1 (relative stereo) [Example 55, hydrochloride]
stdout: 1 to 40 µM

stdin: # repeat for N#Cc1ccc(-c2ccc([C@H]3C[C@@H]3N)cn2)s1 (relative stereo) [Example 56, hydrochloride]
stdout: 1 to 40 µM

stdin: Then CCS(=O)(=O)Nc1cccc(-c2ccc([C@H]3C[C@@H]3N)cn2)c1 (relative stereo) [Example 98, hydrochloride] ?
stdout: 1 to 40 µM

stdin: Queued: N[C@H]1C[C@@H]1c1ccc(-c2ccc3c(c2)[nH]c2ccccc23)nc1 (relative stereo) [Example 61, hydrochloride]
stdout: 1 to 40 µM

---

- subject-of-test: MAO-B (Homo sapiens (Human))
- assay-explanation: biochemical
Where a name gives a salt, the structure may show the parent alone.
Provide the recorded Ki for the entries that follow.

stdin: Need Ki of COc1ccc(-c2ccc([C@H]3C[C@@H]3N)cn2)cc1 (relative stereo) [Example 10, hydrochloride] , thanks.
stdout: 1000 to 40000 nM

stdin: Likewise for N[C@H]1C[C@@H]1c1ccc(-c2ccc(-c3ccccc3)cc2)cc1 [Example 2, hydrochloride] ?
stdout: 100 to 1000 nM

stdin: What about this compound? N[C@H]1C[C@@H]1c1ccc(-c2cccc(O)c2)s1 (relative stereo) [Example 113, trihydrochloride]
stdout: 100 to 1000 nM

stdin: Now this one: N[C@H]1C[C@@H]1c1ccc(-c2ccc(C(F)(F)F)cc2)nc1 (relative stereo) [Example 9, hydrochloride]
stdout: 1 to 100 nM

---

- subject-of-test: Human recombinant LSD1 protein (Homo sapiens (Human))
- assay-explanation: biochemical
pKi: −log10 of the molar value. Counter-ions that a name gives are not always drawn.
Give pKi for every item shown.

stdin: Reported pKi for CS(=O)(=O)Nc1ccccc1-c1ccc([C@H]2C[C@@H]2N)cn1 (relative stereo) [Example 71, hydrochloride] : what is it?
stdout: 6.00 to 7.00

stdin: Try this compound next: NC(=O)c1cccc(-c2ccc([C@H]3C[C@@H]3N)cn2)c1 (relative stereo) [Example 19, hydrochloride]
stdout: 6.00 to 7.00

stdin: Next record, please: N[C@H]1C[C@@H]1c1cnc(-c2cccc(O)c2)s1 (relative stereo) [Example 116, hydrochloride]
stdout: 7.00 to 9.00

stdin: Then what about the compound N[C@H]1C[C@@H]1c1ccc(-c2cccc(C(F)(F)F)c2)cc1 (relative stereo) [Example 1, hydrochloride] ?
stdout: 6.00 to 7.00

---

Give measured Ki for each item. Keep answers brief.
- subject-of-test: Human recombinant LSD1 protein (Homo sapiens (Human))
- assay-explanation: biochemical
Where a name gives a salt, the structure may show the parent alone.

stdin: Looking for the measured Ki of Cc1cccc(-c2ccc([C@H]3C[C@@H]3N)cn2)c1 (relative stereo) [Example 15, hydrochloride] , can you help?
stdout: 100 to 1000 nM

stdin: How about CS(=O)(=O)Nc1cc(Cl)cc(-c2ccc([C@H]3C[C@@H]3N)cc2)c1 (relative stereo) [Example 94, hydrochloride] ?
stdout: 1 to 100 nM

stdin: // same read-out, input: CC(C)S(=O)(=O)Nc1cccc(-c2ccc([C@H]3C[C@@H]3N)cc2)c1 (relative stereo) [Example 69, hydrochloride]
stdout: 1 to 100 nM

stdin: Would you kindly repeat that for N[C@H]1C[C@@H]1c1ccc(-c2cccc(NS(=O)(=O)C(F)(F)F)c2)cc1 (relative stereo) [Example 103, hydrochloride] ?
stdout: 100 to 1000 nM

stdin: One more compound: N[C@H]1C[C@@H]1c1ccc(-c2cc(O)cc(F)c2)nc1 (relative stereo) [Example 24, hydrochloride]
stdout: 1 to 100 nM

stdin: What do you have for N[C@H]1C[C@@H]1c1ccc(-c2cccc(C(F)(F)F)c2)nc1Cl (relative stereo) [Example 76, hydrochloride] ?
stdout: 100 to 1000 nM

stdin: One more compound: N[C@H]1C[C@@H]1c1ccc(-c2ccc(Cl)cc2)nc1 (relative stereo) [Example 7, hydrochloride]
stdout: 100 to 1000 nM

stdin: Continue with N[C@H]1C[C@@H]1c1ccc(-c2ccc(C(F)(F)F)cc2)nc1 (relative stereo) [Example 9, hydrochloride]
stdout: 100 to 1000 nM

stdin: Let us now turn to CC(=O)Nc1cccc(-c2ccc([C@H]3C[C@@H]3N)cn2)c1 (relative stereo) [Example 52, hydrochloride]
stdout: 100 to 1000 nM

stdin: Same again, this time with N[C@H]1C[C@@H]1c1ccc(-c2cccc(O)c2)cc1 (relative stereo) [Example 4, hydrochloride]
stdout: 1 to 100 nM

stdin: What would you report for N#Cc1ccc(-c2ccc([C@H]3C[C@@H]3N)cn2)s1 (relative stereo) [Example 56, hydrochloride] ?
stdout: 1 to 100 nM

stdin: How about N[C@H]1C[C@@H]1c1ccc(-c2cc(O)cc(Cl)c2)nc1 (relative stereo) [Example 29, hydrochloride] ?
stdout: 1 to 100 nM

stdin: // same read-out, input: N[C@H]1C[C@@H]1c1ccc(-c2ccc(-c3ccccc3)cc2)cc1 [Example 2, hydrochloride]
stdout: 100 to 1000 nM

stdin: Request: N[C@H]1C[C@@H]1c1ccc(-c2cccc(O)c2)s1 (relative stereo) [Example 113, trihydrochloride]
stdout: 1 to 100 nM

Entry source: patent US9676701B2
